recorded_metric: melting point (°C)

Reference set, count: 2
# compound, recorded_measurement
rows = [
    ("O=C(O)C(=O)O.S=C1NCCCN1CCCNCC1CCc2ccccc2O1 (racemic) [Compound 14]", 217.6),
    ("O=C(O)C(=O)O.O=C1NCCCN1CCCNCC1CCc2ccccc2O1 (racemic) [Compound 1]", 226.3),
]

[A] N#CN=C1NCCCN1CCCNCC1CCc2ccccc2O1 (racemic) [Compound 21]
[B] O=C1NCCCN1CCCN(Cc1ccccc1)CC1CCc2ccccc2O1 (racemic) [Compound 13]
Q: Looking at A and B , which one comes out lower in melting point terms? Let me know the label of the one you choose.
A: B
